The measured values listed here are drawn from patent US20250339569A1.

STUDY_SYSTEM: human carbonic anhydrase 9 (CAIX) (human, UniProt Q16790 38-459)
ASSAY_SUMMARY: FACS competition on HT-29 cells against tracer 3BP-2776; pIC50 category B = pIC50 7.1-8.0
Starred links: 1 amine or outer side, 2 acyl side, 3 side chain; linkers in the order of their positions; H or OH if unused. Positions of bridges follow the written chain, without caps; N, C: chain ends. Non-standard residues stand in square brackets, D forms with d. Groups on a side chain read outwards from the residue. No end group written: not given here. *: point of attachment. DOTA = O=C(O)CN1CCN(CC(=O)O)CCN(CC(=O)*)CCN(CC(=O)O)CC1; mXylylene = c1cc(C[*:1])cc(C[*:2])c1; Isovaleryl = CC(C)CC(=O)*; Apr = not defined here; AEEA = NCCOCCOCC(=O)O
pIC50 values, listed per item
QUANTITY: pIC50

>>> observed_measurement("Isovaleryl-ECE[dP]DWLTWE([Apr-AEEA-DOTA])C-NH2 (linker 2-11 via mXylylene; reading uncertain, also called Iva-Glu-[Cys(3MeBn)-Glu-pro-Asp-Trp-Leu-Thr-Trp-Glu(NH-Apr-O2Oc-DOTA′)-Cys]-NH2) [3BP-3872]")
"7.1 to 8 pic50"
>>> observed_measurement("VYCEGDWLTWQC-NH2 (linker 3-12 via mXylylene; not fully specified (N-terminus); also: indium complexed by DOTA) [3BP-3328]")
"7.1 to 8 pic50"
>>> observed_measurement("Isovaleryl-DCE[dP]DWLTWE([Apr-AEEA-DOTA])C-NH2 (linker 2-11 via mXylylene; reading uncertain, also called Iva-Asp-[Cys(3MeBn)-Glu-pro-Asp-Trp-Leu-Thr-Trp-Glu(NH-Apr-O2Oc-DOTA′)-Cys]-NH2) [3BP-3871]")
"7.1 to 8 pic50"
